Assay Protocol: Tissue residue depletion in goats (LC-MS/MS)
Assay type: in vivo, goats (Capra hircus)
Run Conditions: both sexes, Boaer-cross, goat, intramuscular, 20 mg/kg bw; muscle, 1 day after last dose, i.m., mean ± SD, 4 goats; read-out: Tissue concentration FF
Value Type: concentration at 1 day

q: Bench note: what concentration at 1 day did CS(=O)(=O)c1ccc([C@@H](O)[C@@H](CF)NC(=O)C(Cl)Cl)cc1 [FF] show?
a: 858 ng/g

----------
Assay Protocol: Tissue residue depletion in goats (LC-MS/MS)
Format: in vivo, goats (Capra hircus)
Run Conditions: both sexes, Boaer-cross, goat, intramuscular, 20 mg/kg bw; kidney, 3 days after last dose, i.m., mean ± SD, 4 goats; read-out: Tissue concentration FF
Description: In this study, a total of 54 Boaer-cross goats (Capra hircus) of both sexes, about 8 months old, were selected, weighing 28–36 kg. During the 1st week of acclimatization, all animals were raised in the usual way, with free access to feed and water. […] Throughout the experiment, all goats had ad libitum access to feed and water without antibiotics. […] The volume of the treatment solution was calculated individually for each goat to provide a dose equivalent to 20 mg FF/kg bw and 10 mg DOX/kg bw. […]
Value Type: concentration at 3 days (ng/g)
Entry rule: numbers only, all in ng/g.

q: Quick check: concentration at 3 days of "CS(=O)(=O)c1ccc([C@@H](O)[C@@H](CF)NC(=O)C(Cl)Cl)cc1" ?
a: 843
